- tested_system: UniProt Q96RI1
- assay: FXR biochemical experiment (AlphaScreen, coactivator recruitment)
- experimental_setup: AlphaScreen, GST-FXR human protein + biotin-labeled steroid receptor coactivator; read-out: FXR enzyme activity EC50
Overview of recorded pEC50 for various molecules
Kindly note that pEC50 refers to -log10 of the concentration in mol/L and answer with the value alone.

Here's what some known entries look like.
[
  {
    "molecule": "CC[C@H]1[C@@H](O)[C@@H]2[C@H](CC[C@]3(C)[C@@H]([C@H](C)CCNc4cncc(C(=O)O)c4)CC[C@@H]23)[C@@]2(C)CC[C@@H](O)C[C@@H]12 [Example 43]",
    "pEC50": 6.43
  },
  {
    "molecule": "CC[C@H]1[C@@H](O)[C@@H]2[C@H](CC[C@]3(C)[C@@H]([C@H](C)CCOc4cccc(C(=O)O)n4)CC[C@@H]23)[C@@]2(C)CC[C@@H](O)C[C@@H]12 [Example 25]",
    "pEC50": 7.96
  },
  {
    "molecule": "CC[C@H]1[C@@H](O)[C@@H]2[C@H](CC[C@]3(C)[C@@H]([C@H](C)CCOc4ncccc4C(=O)O)CC[C@@H]23)[C@@]2(C)CC[C@@H](O)C[C@@H]12 [Example 26]",
    "pEC50": 6.89
  },
  {
    "molecule": "CC[C@H]1[C@@H](O)[C@@H]2[C@H](CC[C@]3(C)[C@@H]([C@H](C)CCOc4ccnc(C(=O)O)c4)CC[C@@H]23)[C@@]2(C)CC[C@@H](O)C[C@@H]12 [Example 41]",
    "pEC50": 7.10
  }
]

We now examine a further molecule.
Quick check: pEC50 of CC[C@H]1[C@@H](O)[C@@H]2[C@H](CC[C@]3(C)[C@@H]([C@H](C)CCOc4ccc(C(=O)NCC(=O)O)cn4)CC[C@@H]23)[C@@]2(C)CC[C@@H](O)C[C@@H]12 [Example 39] ?
7.70

###

- assay: Pharmacokinetics in mice administrated with single compound
- Type: in vivo, mice (C57BL/6J)
- experimental_setup: mouse, plasma; male C57BL/6J mice, oral 10 mg/kg
readout_kind: Cmax (nM)
A number alone suffices; assume nM.

Fill in the blank: the reported Cmax of CC[C@H]1[C@@H](O)[C@@H]2[C@H](CC[C@]3(C)[C@@H]([C@H](C)CCOc4cncc(C(=O)O)c4)CC[C@@H]23)[C@@]2(C)CC[C@@H](O)C[C@@H]12 [Example 11] is ____.
1430

###

- tested_system: FXR (FXR HEK 293T DA cell line) (Homo sapiens, UniProt Q96RI1)
- Sequence (Q96RI1 with tags, fused parts or gaps limits assumed): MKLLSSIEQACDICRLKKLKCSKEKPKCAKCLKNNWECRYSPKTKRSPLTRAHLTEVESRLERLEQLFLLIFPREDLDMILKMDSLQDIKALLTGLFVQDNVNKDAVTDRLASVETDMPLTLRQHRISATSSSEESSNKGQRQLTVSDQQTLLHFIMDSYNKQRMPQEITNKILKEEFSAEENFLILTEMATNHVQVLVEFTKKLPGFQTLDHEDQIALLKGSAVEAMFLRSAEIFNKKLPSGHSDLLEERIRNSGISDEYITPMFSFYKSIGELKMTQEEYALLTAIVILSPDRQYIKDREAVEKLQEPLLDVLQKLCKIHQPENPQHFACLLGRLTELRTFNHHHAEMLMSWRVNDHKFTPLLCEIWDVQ
- assay: FXR cell experiment (β-lactamase reporter gene, GeneBLAzer)
- experimental_setup: FXR HEK 293T DA cells, β-lactamase reporter, 16 hours
- Experimental: Compound Dilution: The compound to be tested was prepared as a 100 μM DMSO solution, and then the compound was diluted 3-fold to 10 concentration points. The reference compound was prepared as a 100 μM DMSO solution, and then diluted 1.3-fold to 10 concentration points. The diluted DMSO solution was added to the wells of a 384-well plate in a volume of 200 nL per well. 2. […] The 384-well microplate was incubated at 37° C., 5% CO2 for 16 hours. 4. […]
Could you please mark class 1 for values of EC50 below 600 nM and class 0 for values at or above it?

A selection of reference data follows.
[
  {
    "compound": "CC[C@H]1[C@@H](O)[C@@H]2[C@H](CC[C@]3(C)[C@@H]([C@H](C)CCn4cc(C(=O)O)ccc4=O)CC[C@@H]23)[C@@]2(C)CC[C@@H](O)C[C@@H]12",
    "tested_system": "FXR (FXR HEK 293T DA cell line) (Homo sapiens, UniProt Q96RI1)",
    "answer_label": "class 1"
  },
  {
    "compound": "CC[C@@H]1C2C[C@H](O)CC[C@]2(C)[C@H]2CC[C@]3(C)[C@@H]([C@H](C)CCn4cc(C(=O)O)cn4)CC[C@H]3[C@@H]2[C@@H]1O (stereo partly shown)",
    "tested_system": "FXR (FXR HEK 293T DA cell line) (Homo sapiens, UniProt Q96RI1)",
    "answer_label": "class 0"
  },
  {
    "compound": "CC[C@H]1[C@@H](O)[C@@H]2[C@H](CC[C@]3(C)[C@@H]([C@H](C)CCn4ccc(C(=O)O)cc4=O)CC[C@@H]23)[C@@]2(C)CC[C@@H](O)C[C@@H]12",
    "tested_system": "FXR (FXR HEK 293T DA cell line) (Homo sapiens, UniProt Q96RI1)",
    "answer_label": "class 0"
  },
  {
    "compound": "CC[C@H]1[C@@H](O)[C@@H]2[C@H](CC[C@]3(C)[C@@H]([C@H](C)CCc4cccc(C(=O)O)c4)CC[C@@H]23)[C@@]2(C)CC[C@@H](O)C[C@@H]12",
    "tested_system": "FXR (FXR HEK 293T DA cell line) (Homo sapiens, UniProt Q96RI1)",
    "answer_label": "class 1"
  },
  {
    "compound": "CC[C@H]1[C@@H](O)[C@@H]2[C@H](CC[C@]3(C)[C@@H]([C@H](C)CCOc4cccc(C(=O)O)c4)CC[C@@H]23)[C@@]2(C)CC[C@@H](O)C[C@@H]12",
    "tested_system": "FXR (FXR HEK 293T DA cell line) (Homo sapiens, UniProt Q96RI1)",
    "answer_label": "class 1"
  }
]

Is 600 nM strictly greater than the compound's reported EC50? compound: CC[C@H]1[C@@H](O)[C@@H]2[C@H](CC[C@]3(C)[C@@H]([C@H](C)CCOc4ccc(C(=O)O)nc4)CC[C@@H]23)[C@@]2(C)CC[C@@H](O)C[C@@H]12
class 1

Please give the result for CC[C@H]1[C@@H](O)[C@@H]2[C@H](CC[C@]3(C)[C@@H]([C@H](C)CCOc4cncc(C(=O)O)c4)CC[C@@H]23)[C@@]2(C)CC[C@@H](O)C[C@@H]12 too.
class 1
